protocol: Metabolic stability in rat liver microsome assessed as half life measured up to 60 mins in presence of NADPH by LC-MS/MS analysis
Assay type: ADME
setupConditions: liver microsomes
I'd appreciate it if you could supply half-life values for the items below.
For clarity, give the value followed by its unit.

### Prompt Output half-life of `O=C(O)Cc1ccccc1Nc1c(Cl)cccc1Cl`
### Response 16.6 min

### Prompt Output half-life of `O=C(NCc1cccs1)[C@@H]1CN(C(=O)c2cccnc2)CCN1c1ccc(Cl)c(Cl)c1`
### Response 2.51 min

### Prompt Output half-life of `O=C(c1cccnc1)N1CCN(c2ccc(Cl)c(Cl)c2)[C@H](c2cn(-c3ccc(CO)cc3)nn2)C1`
### Response 10.3 min
